# tgt: Estrogen receptor (Mus musculus) (UniProt O08537+P19785)
# Sequence (O08537 whole entry, looked up): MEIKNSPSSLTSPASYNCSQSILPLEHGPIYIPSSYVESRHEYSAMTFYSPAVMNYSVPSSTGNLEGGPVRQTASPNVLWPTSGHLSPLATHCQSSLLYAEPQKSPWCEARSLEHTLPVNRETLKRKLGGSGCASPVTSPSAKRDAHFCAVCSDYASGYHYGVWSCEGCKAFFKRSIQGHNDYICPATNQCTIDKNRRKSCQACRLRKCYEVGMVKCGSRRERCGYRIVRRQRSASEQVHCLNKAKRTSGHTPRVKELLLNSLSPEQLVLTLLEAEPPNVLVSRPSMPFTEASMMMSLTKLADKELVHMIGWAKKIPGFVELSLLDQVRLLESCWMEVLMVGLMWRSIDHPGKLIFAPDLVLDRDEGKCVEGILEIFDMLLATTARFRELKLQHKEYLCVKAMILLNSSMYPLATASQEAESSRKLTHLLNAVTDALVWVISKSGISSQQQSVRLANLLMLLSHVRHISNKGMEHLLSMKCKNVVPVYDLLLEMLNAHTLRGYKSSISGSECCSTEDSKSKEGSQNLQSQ
# Sequence (P19785 whole entry, looked up): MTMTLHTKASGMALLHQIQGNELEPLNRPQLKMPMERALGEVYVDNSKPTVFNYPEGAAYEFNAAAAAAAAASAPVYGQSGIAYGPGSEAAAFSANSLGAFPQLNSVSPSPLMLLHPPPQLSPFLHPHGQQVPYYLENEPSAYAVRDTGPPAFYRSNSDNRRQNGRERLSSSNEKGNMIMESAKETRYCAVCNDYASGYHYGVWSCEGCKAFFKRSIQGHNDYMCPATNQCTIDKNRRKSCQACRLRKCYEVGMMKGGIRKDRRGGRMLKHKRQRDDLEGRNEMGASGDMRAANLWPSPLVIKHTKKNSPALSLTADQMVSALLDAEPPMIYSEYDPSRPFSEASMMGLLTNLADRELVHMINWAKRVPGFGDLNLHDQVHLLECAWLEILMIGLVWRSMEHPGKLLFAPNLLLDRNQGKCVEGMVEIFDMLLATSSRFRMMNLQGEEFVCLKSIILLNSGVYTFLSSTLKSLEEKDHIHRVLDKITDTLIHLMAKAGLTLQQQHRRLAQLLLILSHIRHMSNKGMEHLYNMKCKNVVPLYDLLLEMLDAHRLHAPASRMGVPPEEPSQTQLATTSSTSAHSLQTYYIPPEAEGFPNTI
# method-description: Percent inhibition of uterotrophic effect in mice at 125 ug dose
# Assay type: functional
observed-property: inhibition
Please state the number and follow it with the unit.

For the molecule shown here, CC1=C(c2ccc(O)cc2)C(CCCCCCN2CCCC2)c2ccc(O)cc21 (stereo not drawn) , give the reported inhibition. 117%

What does the data say about its inhibition? Entry: CC1=C(c2ccc(O)cc2)C(CCCCCCN)c2ccc(O)cc21 (stereo not drawn) 99%

What inhibition value was documented for this molecule, CC1=C(c2ccc(O)cc2)C(CCCCN2CCCC2)c2ccc(O)cc21 (stereo not drawn) ? 53%

What measured inhibition goes with CC1=C(c2ccc(O)cc2)C(CCCCCCN2CCCCC2)c2ccc(O)cc21 (stereo not drawn) ? 98%

More entries:
If you can, please state the reported inhibition value of CCN(CC)CCCCCCC1C(c2ccc(O)cc2)=C(C)c2cc(O)ccc21 (stereo not drawn) . 61%

Value lookup for inhibition; key = CC1=C(c2ccc(O)cc2)C(CCCCCCNCc2ccccc2)c2ccc(O)cc21 (stereo not drawn) 51%

Tell me the measured inhibition of CC1=C(c2ccc(O)cc2)C(CCCCCCN2CCOCC2)c2ccc(O)cc21 (stereo not drawn) , please. 102%

Consider the molecule CNCCCCCCC1C(c2ccc(O)cc2)=C(C)c2cc(O)ccc21 (stereo not drawn) and give its measured inhibition. 59%

----------
# tgt: Estrogen receptor (Mus musculus) (UniProt O08537+P19785)
# method-description: Percent inhibition of uterotrophic effect in mice at 5 ug dose
# Type: functional
Quick rule: inhibition of at least 50% means MET, below that means NOT MET.

Example results:
Quick check, inhibition >= 50%? CCN(CC)CCCCCCC1C(c2ccc(O)cc2)=C(C)c2cc(O)ccc21 (configuration not stated) NOT MET

Entry CC1=C(c2ccc(O)cc2)C(CCCCCCN)c2ccc(O)cc21 (configuration not stated) : is its inhibition no less than 50%? MET

Further cases:
Threshold query (inhibition >= 50%) on CC1=C(c2ccc(O)cc2)C(CCCCCCN2CCCCC2)c2ccc(O)cc21 (configuration not stated) MET

// inclusive: inhibition at least 50%? input: CC1=C(c2ccc(O)cc2)C(CCCCCCN2CCOCC2)c2ccc(O)cc21 (configuration not stated) NOT MET

Say whether CC1=C(c2ccc(O)cc2)C(CCCCCCNCc2ccccc2)c2ccc(O)cc21 (configuration not stated) shows inhibition of 50% or more. NOT MET

API: above_or_equal(metric=inhibition, cutoff=50%) for item CC1=C(c2ccc(O)cc2)C(CCCCCCN2CCCC2)c2ccc(O)cc21 (configuration not stated) MET

----------
# tgt: Estrogen receptor (Mus musculus) (UniProt O08537+P19785)
# method-description: Uterotrophic effect in mice at 1 ug
# Format: functional, tissue-based
# settings: Uterus
Reported Relative uterine weight values for the following molecules.
Answer with a number only.

What does the record list as Relative uterine weight for CNCCCCCCC1C(c2ccc(O)cc2)=C(C)c2cc(O)ccc21 (centres undefined) ? 14.4

// lookup Relative uterine weight for CC1=C(c2ccc(O)cc2)C(CCCCN2CCCC2)c2ccc(O)cc21 (centres undefined) 7.6

Would you kindly share the measured Relative uterine weight for CC1=C(c2ccc(O)cc2)C(CCCCCCN)c2ccc(O)cc21 (centres undefined) ? 10.9

Query: Relative uterine weight; subject: CC1=C(c2ccc(O)cc2)C(CCCCCCN2CCCC2)c2ccc(O)cc21 (centres undefined) 12.5

----------
# tgt: Estrogen receptor (Mus musculus) (UniProt O08537+P19785)
# method-description: Anti-uterotrophic effect in mice at 5 ug
# Format: functional
# Relative uterine weight per entry
When you answer, write just the number.

Worked set:
// lookup Relative uterine weight for CC1=C(c2ccc(O)cc2)C(CCCCCCN2CCOCC2)c2ccc(O)cc21 (stereo not drawn) 51.2

Which measured Relative uterine weight value corresponds to CC1=C(c2ccc(O)cc2)C(CCCCCCN2CCCCC2)c2ccc(O)cc21 (stereo not drawn) ? 28.9

Please look up its Relative uterine weight: CC1=C(c2ccc(O)cc2)C(CCCCCCNCc2ccccc2)c2ccc(O)cc21 (stereo not drawn) 53.2

What does the data say about its Relative uterine weight? Entry: CC1=C(c2ccc(O)cc2)C(CCCCCCN2CCCC2)c2ccc(O)cc21 (stereo not drawn) 15.4

Further cases:
Query: Relative uterine weight; subject: CCN(CC)CCCCCCC1C(c2ccc(O)cc2)=C(C)c2cc(O)ccc21 (stereo not drawn) 46

GET /values?readout=Relative uterine weight&item= CC1=C(c2ccc(O)cc2)C(CCCCCCN)c2ccc(O)cc21 (stereo not drawn) 30.1

Name the recorded Relative uterine weight for CNCCCCCCC1C(c2ccc(O)cc2)=C(C)c2cc(O)ccc21 (stereo not drawn) . 38.1

Fill in the blank: the reported Relative uterine weight of CC1=C(c2ccc(O)cc2)C(CCCCN2CCCC2)c2ccc(O)cc21 (stereo not drawn) is ____. 47.6

----------
Let's look at some compounds and their measured Relative uterine weight.
# tgt: Estrogen receptor (Mus musculus) (UniProt O08537+P19785)
# method-description: Uterotrophic effect in mice at 125 ug
# Assay type: functional, tissue-based
# settings: Uterus
Answer with a number only.

Reported Relative uterine weight for CC1=C(c2ccc(O)cc2)C(CCCCN2CCCC2)c2ccc(O)cc21 (stereo not drawn) : what is it? 6.4

So what's the measured Relative uterine weight for this one? CC1=C(c2ccc(O)cc2)C(CCCCCCN2CCCC2)c2ccc(O)cc21 (stereo not drawn) 14.1

What does the record list as Relative uterine weight for CC1=C(c2ccc(O)cc2)C(CCCCCCNCc2ccccc2)c2ccc(O)cc21 (stereo not drawn) ? 34

I have this compound here, CC1=C(c2ccc(O)cc2)C(CCCCCCN2CCCCC2)c2ccc(O)cc21 (stereo not drawn) , and I need its recorded Relative uterine weight. 24.7

What value of Relative uterine weight has been recorded for this entry: CNCCCCCCC1C(c2ccc(O)cc2)=C(C)c2cc(O)ccc21 (stereo not drawn) 34

Relative uterine weight for CC1=C(c2ccc(O)cc2)C(CCCCCCN)c2ccc(O)cc21 (stereo not drawn) ? 16.9

Which Relative uterine weight value belongs to CC1=C(c2ccc(O)cc2)C(CCCCCCN2CCOCC2)c2ccc(O)cc21 (stereo not drawn) ? 17.4

Now turn to the next compound.
Name the recorded Relative uterine weight for CCN(CC)CCCCCCC1C(c2ccc(O)cc2)=C(C)c2cc(O)ccc21 (stereo not drawn) . 22.4

----------
# tgt: Estrogen receptor (Mus musculus) (UniProt O08537+P19785)
# method-description: Uterotrophic effect in mice at 5 ug
# Format: functional, tissue-based
# settings: Uterus
observed-property: Relative uterine weight
// return just the number, without any unit appended

Guide cases for Relative uterine weight, answers given:
Give recorded Relative uterine weight with Estrogen receptor (Mus musculus) (UniProt O08537+P19785) for the following compound: CC1=C(c2ccc(O)cc2)C(CCCCCCN2CCCCC2)c2ccc(O)cc21 (stereo not drawn) 19.7

Provide value of Relative uterine weight for this record tested with Estrogen receptor (Mus musculus) (UniProt O08537+P19785): CCN(CC)CCCCCCC1C(c2ccc(O)cc2)=C(C)c2cc(O)ccc21 (stereo not drawn) 16.1

Hello, I am looking for reported Relative uterine weight with Estrogen receptor (Mus musculus) (UniProt O08537+P19785) for CC1=C(c2ccc(O)cc2)C(CCCCCCN)c2ccc(O)cc21 (stereo not drawn) . Could you help? 11.9

Others:
API: value(readout= Relative uterine weight, system= Estrogen receptor (Mus musculus) (UniProt O08537+P19785), query= CC1=C(c2ccc(O)cc2)C(CCCCN2CCCC2)c2ccc(O)cc21 (stereo not drawn) ) 8

# get_value(readout= Relative uterine weight, system= Estrogen receptor (Mus musculus) (UniProt O08537+P19785)) for CC1=C(c2ccc(O)cc2)C(CCCCCCNCc2ccccc2)c2ccc(O)cc21 (stereo not drawn) 17.8

Write down the reported Relative uterine weight of CNCCCCCCC1C(c2ccc(O)cc2)=C(C)c2cc(O)ccc21 (stereo not drawn) , test system: Estrogen receptor (Mus musculus) (UniProt O08537+P19785). 22.8

Query the reported Relative uterine weight for Estrogen receptor (Mus musculus) (UniProt O08537+P19785); item: CC1=C(c2ccc(O)cc2)C(CCCCCCN2CCCC2)c2ccc(O)cc21 (stereo not drawn) 9

Form field - read-out: Relative uterine weight; system: Estrogen receptor (Mus musculus) (UniProt O08537+P19785); submitted item: CC1=C(c2ccc(O)cc2)C(CCCCCCN2CCOCC2)c2ccc(O)cc21 (stereo not drawn) 19.5

----------
# tgt: Estrogen receptor (Mus musculus) (UniProt O08537+P19785)
# method-description: Percent inhibition of uterotrophic effect in mice at 25 ug dose
# Type: functional
observed-property: inhibition (%)
Report as a plain number; the unit % is understood.

Quick check: inhibition of CC1=C(c2ccc(O)cc2)C(CCCCCCN2CCCC2)c2ccc(O)cc21 (stereo not given) ? 103

Item under review: CC1=C(c2ccc(O)cc2)C(CCCCCCN2CCOCC2)c2ccc(O)cc21 (stereo not given) . Reported inhibition? 18

Value lookup for inhibition; key = CC1=C(c2ccc(O)cc2)C(CCCCCCNCc2ccccc2)c2ccc(O)cc21 (stereo not given) 43

Further cases:
For the compound CC1=C(c2ccc(O)cc2)C(CCCCCCN)c2ccc(O)cc21 (stereo not given) , what inhibition is on record? 102

Name the recorded inhibition for CC1=C(c2ccc(O)cc2)C(CCCCN2CCCC2)c2ccc(O)cc21 (stereo not given) . 78

These entries and their values trace back to ChEMBL document CHEMBL1125054.
